Values compiled from patent US20240158446A1.

For each of the compounds below, state its Kd.
Target System: UniProtKB P01116
Method Description: Binding to KRAS by surface plasmon resonance (SPR), Single Cycle Kinetics
Assay Context: SPR, Single Cycle Kinetics, GDP-bound KRAS wild-type protein; read-out: KRAS KD
State just the number; it will be interpreted in nM.

The compound listed as CCCOC[C@H]1C(=O)N[C@@H]([C@@H](C)CC)C(=O)N2CCC[C@H]2C(=O)N(C)[C@H]2C/C=C\CCN(C2=O)[C@@H](Cc2ccc(C)cc2)C(=O)N(C)CC(=O)N[C@@H](CCc2ccc(C(F)(F)F)c(OC)c2)C(=O)N2C[C@H](OCC)C[C@H]2C(=O)N(C)C2(CCC2)C(=O)N(C)[C@@H](C(CC)CC)C(=O)N(C)[C@H](C(=O)N(C)C)CC(=O)N1C has a reported Kd of 0.36

The compound CCO[C@@H]1C[C@H]2C(=O)NC3(CCC3)C(=O)N(C)[C@@H](C3CCCC3)C(=O)N(C)[C@H](C(=O)N(C)C)CC(=O)N(CC)[C@@H](CC(C)C)C(=O)N[C@@H]([C@@H](C)CC)C(=O)N(C)CC(=O)N(C)[C@H]3C/C=C\CCN(C3=O)[C@@H](Cc3ccc(C(F)(F)F)cc3)C(=O)N(C)CC(=O)N[C@@H](CCc3cc(F)c(C(F)(F)F)c(F)c3)C(=O)N2C1 showed Kd equal to 0.084

###

Target System: GDP-bound KRAS wild-type protein (Homo sapiens, UniProt P01116)
Sequence (P01116 whole entry): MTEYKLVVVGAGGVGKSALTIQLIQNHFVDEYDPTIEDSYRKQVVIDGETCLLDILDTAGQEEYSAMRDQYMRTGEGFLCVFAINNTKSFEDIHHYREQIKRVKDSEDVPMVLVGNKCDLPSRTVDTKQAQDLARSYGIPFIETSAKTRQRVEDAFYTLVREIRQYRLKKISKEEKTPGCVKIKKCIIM
Method Description: Binding to KRAS by surface plasmon resonance (SPR), Single Cycle Kinetics
Assay Context: SPR Single Cycle Kinetics, GDP-bound KRAS wild-type protein, 1:1 binding model; read-out: KRAS KD
Where a SMILES comes first, the peptide text is derived from it. Bridges are numbered along the chain shown (N, C = ends). [ ]: non-standard residue; d: D form. The star is where a group is joined. hPhe(3-Cl-4-CF3) = N[C@@H](CCc1ccc(C(F)(F)F)c(Cl)c1)C(=O)O; NPrPhe(4-CF3) = CCCN[C@@H](Cc1ccc(C(F)(F)F)cc1)C(=O)O; NMeGly(cPent) = CN[C@H](C(=O)O)C1CCCC1; Hyp = O=C(O)[C@@H]1C[C@@H](O)CN1; NMeD = CN[C@@H](CC(=O)O)C(=O)O; NMeL = CN[C@@H](CC(C)C)C(=O)O; Morpholide = C1CN(*)CCO1; Ac5c = NC1(C(=O)O)CCCC1; Aze = O=C(O)[C@@H]1CCN1; Ac4c = NC1(C(=O)O)CCC1; Sar = CNCC(=O)O
For each entry below, report its pKd value.
// pKd is dimensionless: -log10 of concentration (M)

Lookup result for CCCN1C(=O)CN(C)C(=O)CNC(=O)[C@H]([C@@H](C)CC)NC(=O)[C@H](CC(C)C)N(C)C(=O)C[C@@H](C(=O)N(C)C)NC(=O)[C@H](C2CCCC2)N(C)C(=O)C2(CCC2)NC(=O)[C@@H]2C[C@@H](OCC)CN2C(=O)[C@H](CCc2ccc(C(F)(F)F)c(Cl)c2)NC(=O)CN(C)C(=O)[C@@H]1Cc1ccc(C(F)(F)F)cc1 [PP0366] ([NMeL]IG[Sar][NPrPhe(4-CF3)][Sar][hPhe(3-Cl-4-CF3)][Hyp](Et)[Ac4c][NMeGly(cPent)]D-NMe2; lactam N-11) ; measured pKd: 9.42

Input CCCN1C(=O)[C@@H]2CCN2C(=O)[C@H](C)NC(=O)[C@H]([C@@H](C)CC)NC(=O)[C@H](CC(C)C)N(C)C(=O)C[C@@H](C(=O)N2CCOCC2)N(C)C(=O)[C@H](C2CCCC2)N(C)C(=O)C2(CCCC2)NC(=O)[C@@H]2CCCN2C(=O)[C@H](CCc2ccc(C(F)(F)F)c(Cl)c2)NC(=O)CN(C)C(=O)[C@@H]1Cc1ccc(C(F)(F)F)cc1 [PP0078] ([NMeL]IA[Aze][NPrPhe(4-CF3)][Sar][hPhe(3-Cl-4-CF3)]P[Ac5c][NMeGly(cPent)][NMeD]-Morpholide; lactam N-11) . Output pKd: 9.72

###

Target System: GDP-bound KRAS wild-type protein (Homo sapiens)
Method Description: Binding to KRAS by surface plasmon resonance (SPR), Single Cycle Kinetics
Assay Context: SPR, Single Cycle Kinetics, GDP-bound KRAS wild-type protein; read-out: KRAS KD
Parameter Measured: Kd (nM)
Answer with a number only, understood to be in nM.

Entry under test: CCC[C@H]1C(=O)N[C@@H]([C@@H](C)CC)C(=O)N(C)CC(=O)N(C)[C@H]2C/C=C\CCN(C2=O)[C@@H](Cc2ccc(C(F)(F)F)cc2)C(=O)N(C)CC(=O)N[C@@H](CCc2ccc(C(F)(F)F)c(OC)c2)C(=O)N2C[C@H](OCC)C[C@H]2C(=O)N(C)C2(CCC2)C(=O)N(C)[C@@H](C2CCCC2)C(=O)N(C)[C@H](C(=O)N(C)C)CC(=O)N1C . Its Kd was 0.03

Kd measured on CCO[C@@H]1C[C@H]2C(=O)N(C)C3(CCCC3)C(=O)N(C)[C@@H](C3CCCC3)C(=O)N(C)[C@H](C(=O)N(C)C)CC(=O)N(C)[C@@H](C3CC3)C(=O)N[C@@H]([C@@H](C)CC)C(=O)N(C)CC(=O)N(C)[C@H]3C/C=C\CCN(C3=O)[C@@H](Cc3ccc(C)cc3)C(=O)N(C)CC(=O)N[C@@H](CCc3cc(F)c(C(F)(F)F)c(F)c3)C(=O)N2C1 = 0.084

###

Task for the reader: assign each of the following compounds its reported Kd.
Target System: GDP-bound KRAS wild-type protein (Homo sapiens)
Method Description: Binding to KRAS by surface plasmon resonance (SPR), Single Cycle Kinetics
Assay Context: SPR Single Cycle Kinetics, GDP-bound KRAS wild-type protein, 1:1 binding model; read-out: KRAS KD
Where a SMILES comes first, the peptide text is derived from it. Bridges are numbered along the chain shown (N, C = ends). [ ]: non-standard residue; d: D form. The star is where a group is joined. hPhe(3-Cl-4-CF3) = N[C@@H](CCc1ccc(C(F)(F)F)c(Cl)c1)C(=O)O; NPrPhe(4-CF3) = CCCN[C@@H](Cc1ccc(C(F)(F)F)cc1)C(=O)O; Pip(4,4-F2) = O=C(O)[C@@H]1CC(F)(F)CCN1; NMeGly(cPent) = CN[C@H](C(=O)O)C1CCCC1; NMeD = CN[C@@H](CC(=O)O)C(=O)O; NMeL = CN[C@@H](CC(C)C)C(=O)O; Morpholide = C1CN(*)CCO1; Ac5c = NC1(C(=O)O)CCCC1; Aze = O=C(O)[C@@H]1CCN1; Sar = CNCC(=O)O
Record the result as a number with its unit.

Summary for this compound, CC[C@H](C)[C@@H]1NC(=O)[C@@H]2CCC/C=C/c3ccc(cc3)C[C@@H](C(=O)N(C)CC(=O)N[C@@H](CCc3ccc(Cl)c(Cl)c3)C(=O)N3C[C@H](OC(C)C)C[C@H]3C(=O)NC3(CC(C)(C)C3)C(=O)N(C)[C@@H](C3CCCC3)C(=O)N(C)[C@H](C(=O)N(C)CC)CC(=O)N2C)N2CC/C=C\C[C@@H](C2=O)N(C)C(=O)CN(C)C1=O : Kd is 0.17 nM

Consider CCCN1C(=O)CN(C)C(=O)[C@@H]2CCN2C(=O)[C@H]([C@@H](C)CC)NC(=O)[C@H](CC(C)C)N(C)C(=O)C[C@@H](C(=O)N2CCOCC2)N(C)C(=O)[C@H](C2CCCC2)N(C)C(=O)C2(CCCC2)NC(=O)[C@@H]2CC(F)(F)CCN2C(=O)[C@H](CCc2ccc(C(F)(F)F)c(Cl)c2)NC(=O)CN(C)C(=O)[C@@H]1Cc1ccc(C(F)(F)F)cc1 [PP0312] ([NMeL]I[Aze][Sar][NPrPhe(4-CF3)][Sar][hPhe(3-Cl-4-CF3)][Pip(4,4-F2)][Ac5c][NMeGly(cPent)][NMeD]-Morpholide; lactam N-11) . Its measured Kd is 3.4 nM

The compound CCC[C@H]1C(=O)N[C@@H]([C@@H](C)CC)C(=O)N(C)CC(=O)N(C)[C@H]2C/C=C\CCN(C2=O)[C@@H](Cc2ccc(C)cc2)C(=O)N(C)CC(=O)N[C@@H](CCc2ccc(Cl)c(OC)c2)C(=O)N2C[C@H](OCC)C[C@H]2C(=O)NC2(CC(C)(C)C2)C(=O)N(C)[C@@H](C(CC)CC)C(=O)N(C)[C@H](C(=O)N(C)C)CC(=O)N1C showed Kd equal to 1.9 nM

###

Target System: GDP-bound KRAS wild-type protein (Homo sapiens, UniProt P01116)
Method Description: Binding to KRAS by surface plasmon resonance (SPR), Single Cycle Kinetics
Assay Context: SPR, Single Cycle Kinetics, 1:1 binding model; GDP-bound KRAS wild-type protein; read-out: KRAS KD
So I've got a bunch of molecules here, and I need their Kd values.
Note: unit pM is implicit; provide only the numeric part.

Kd measured on CCO[C@@H]1C[C@H]2C(=O)NC3(CCC3)C(=O)N(C)[C@@H](C(CC)CC)C(=O)N(C)[C@H](C(=O)N(C)C)CC(=O)N(C)[C@@H](COC)C(=O)N[C@@H]([C@@H](C)CC)C(=O)N(C)CC(=O)N(C)[C@H]3C/C=C\CCN(C3=O)[C@@H](Cc3ccc(C(F)(F)F)cc3)C(=O)N(C)CC(=O)N[C@@H](CCc3ccc(Cl)c(Cl)c3)C(=O)N2C1 [PP1221] = 400

Entry CCOC[C@H]1C(=O)N[C@@H]([C@@H](C)CC)C(=O)N(C)CC(=O)N(C)[C@H]2C/C=C\CCN(C2=O)[C@@H](Cc2ccc(C(F)(F)F)cc2)C(=O)N(C)CC(=O)N[C@@H](CCc2cc(F)c(C(F)(F)F)c(F)c2)C(=O)N2C[C@H](OCC)C[C@H]2C(=O)NC2(CCC2)C(=O)N(C)[C@@H](C2CCCC2)C(=O)N(C)[C@H](C(=O)N(C)C)CC(=O)N1C [PP1266] ; Kd = 45

Input CCO[C@@H]1C[C@H]2C(=O)NC3(CCC3)C(=O)N(C)[C@@H](C3CCCC3)C(=O)N(C)[C@H](C(=O)N3CCCC3)CC(=O)N(C)[C@@H](C)C(=O)N[C@@H]([C@@H](C)CC)C(=O)N(C)CC(=O)N(C)[C@H]3C/C=C\CCN(C3=O)[C@@H](Cc3ccc(C(F)(F)F)cc3)C(=O)N(C)CC(=O)N[C@@H](CCc3cc(F)c(C(F)(F)F)c(F)c3)C(=O)N2C1 [PP1297] . Output Kd: 87

Input CCO[C@@H]1C[C@H]2C(=O)NC3(CCC3)C(=O)N(C)[C@@H](C3CCCC3)C(=O)N(C)[C@H](C)CC(=O)N(C)[C@@H](CC3CC3)C(=O)N[C@@H]([C@@H](C)CC)C(=O)N(C)CC(=O)N(C)[C@H]3C/C=C\CCN(C3=O)[C@@H](Cc3ccc(C)cc3)C(=O)N(C)CC(=O)N[C@@H](CCc3cc(F)c(C(F)(F)F)c(F)c3)C(=O)N2C1 [PP1410] . Output Kd: 320

# Kd (molecule: CCO[C@@H]1C[C@H]2C(=O)NC3(CCC3)C(=O)N(C)[C@@H](C3CCCC3)C(=O)N(C)[C@H](C(=O)N(C)CC)CC(=O)N(C)[C@@H](C)C(=O)N[C@@H]([C@@H](C)CC)C(=O)N(C)CC(=O)N(C)[C@H]3C/C=C\CCN(C3=O)[C@@H](Cc3ccc(C(F)(F)F)cc3)C(=O)N(C)CC(=O)N[C@@H](CCc3cc(F)c(C(F)(F)F)c(F)c3)C(=O)N2C1 [PP1302] ) is 57

# Kd (molecule: CCO[C@@H]1C[C@H]2C(=O)NC3(CCCC3)C(=O)N(C)[C@@H](C3CCCC3)C(=O)N(C)[C@H](C(=O)N(C)C)CC(=O)N(C)[C@@H](CC)C(=O)N[C@@H]([C@@H](C)CC)C(=O)N(C)CC(=O)N(C)[C@H]3C[C@H](C)C(C)CN(C3=O)[C@@H](Cc3ccc(C(F)(F)F)cc3)C(=O)N(C)CC(=O)N[C@@H](CCc3cc(F)c(C(F)(F)F)c(F)c3)C(=O)N2C1 (some centres unmarked) [PP1347] ) is 17

Item: CCO[C@@H]1C[C@H]2C(=O)NC3(CCC3)C(=O)N(C)[C@@H](C3CCCC3)C(=O)N(C)[C@H](C(=O)N(CC)CC)CC(=O)N(C)[C@@H](CC(C)C)C(=O)N[C@@H]([C@@H](C)CC)C(=O)N(C)CC(=O)N(C)[C@H]3C/C=C\CCN(C3=O)[C@@H](Cc3ccc(C(F)(F)F)cc3)C(=O)N(C)CC(=O)N[C@@H](CCc3cc(F)c(C(F)(F)F)c(F)c3)C(=O)N2C1 [PP1306] | Kd: 200

The recorded Kd for CC[C@H](C)[C@@H]1NC(=O)[C@H](CC2CC2)N(C)C(=O)C[C@@H](C(=O)N2CCOCC2)N(C)C(=O)[C@H](C2CCCC2)N(C)C(=O)C2(CCCC2)NC(=O)[C@@H]2CCCN2C(=O)[C@H](CCc2ccc(C(F)(F)F)c(Cl)c2)NC(=O)CN(C)C(=O)[C@H](Cc2ccc(C(F)(F)F)cc2)N2C[C@H](C)CC[C@@H](C2=O)N(C)C(=O)CN(C)C1=O [PP1343] is 270

response.value for CC[C@H](C)[C@@H]1NC(=O)[C@H](CC(C)C)N(C)C(=O)C[C@@H](C(=O)N(C)C)N(C)C(=O)[C@H](C2CCCC2)N(C)C(=O)C2(CCC2)NC(=O)[C@@H]2CCCN2C(=O)[C@H](CCc2cc(F)c(C(F)(F)F)c(F)c2)NC(=O)CN(C)C(=O)[C@H](Cc2ccc(C(F)(F)F)cc2)N2CC/C=C\C[C@@H](C2=O)N(C)C(=O)CN(C)C1=O [PP1272] (field: Kd) = 110

Notebook: CCC[C@H]1C(=O)N[C@@H]([C@@H](C)CC)C(=O)N(C)CC(=O)N(C)[C@H]2C/C=C\CCN(C2=O)[C@@H](Cc2ccc(C(F)(F)F)cc2)C(=O)N(C)CC(=O)N[C@@H](CCc2cc(F)c(C(F)(F)F)c(F)c2)C(=O)N2C[C@H](OCC)C[C@H]2C(=O)NC2(CCC2)C(=O)N(C)[C@@H](C2CCCC2)C(=O)N(C)[C@H](C(=O)N(C)CC)CC(=O)N1C [PP1304] , Kd read as 70

Value of Kd reported for the molecule CC[C@H](C)[C@@H]1NC(=O)[C@H](CC2CC2)N(C)C(=O)C[C@@H](C(=O)N(C)C)N(C)C(=O)[C@H](C2CCCC2)N(C)C(=O)C2(CC(C)(C)C2)NC(=O)[C@@H]2C[C@@H](F)CN2C(=O)[C@H](CCc2cc(F)c(C(F)(F)F)c(F)c2)NC(=O)CN(C)C(=O)[C@H](Cc2ccc(C(F)(F)F)cc2)N2CC/C=C\C[C@@H](C2=O)N(C)C(=O)CN(C)C1=O [PP1501] is 24
